Reference for the values: patent US20150328245A1

# System: LNCaP
# assay text: In vitro soft agar colony forming growth assay
# Type: cell-based
# applied conditions: one week
property measured: IC50 (µM)
Give bare numbers, in µM.

[ask] For N.N.[Cl][Pt][Cl] [Cisplatin, cisplatin, reference compound] , what is its reported IC50?
[reply] 64.6

* * *

# Tested on: T47D
# assay text: In vitro soft agar colony forming growth assay
# Type: cell-based
# applied conditions: one week
property measured: pIC50
Numbers only, as −log10 of the molar value.

[ask] For N.N.[Cl][Pt][Cl] [Cisplatin, cisplatin, reference compound] , what is its reported pIC50?
[reply] 4.29

* * *

# System: T47D
# assay text: In vitro soft agar colony forming growth assay
# Assay type: cell-based
# applied conditions: Homo sapiens, 168 h, one week
Consider the following compounds; for each one, report its IC50.
Answers are plain numbers, in nM.

| compound | system | IC50 [nM] |
| --- | --- | --- |
| COc1cc2c(OC3OCC(O)C(O)C3O)c3c(c(-c4ccc5c(c4)OCO5)c2cc1OC)C(=O)OC3 (centres unmarked) | T47D | 700 |

We next turn to a different compound, shown below.
[ask] For COc1cc2c(OC3OCC(OC)C(OC)C3O)c3c(c(-c4ccc5c(c4)OCO5)c2cc1OC)C(=O)OC3 (centres unmarked) , what is its reported IC50?
[reply] 2390
